I'd be grateful if you could share measured T/C for these entries.
Tested on: CD2F1 mice, L1210 leukemia ip, survival T/C
Assay: NCI In Vivo Anticancer Drug Screen. Data for tumor model L1210 Leukemia (intraperitoneal) in CD2F1 (CDF1) mice
Settings: endpoint: mean survival time; dose: 100.0 mg/kg/injection; schedule: Q01DX001 (ip); vehicle: saline with Tween-80; higher = longer survival
Toxic doses and inconclusive results are not listed.

Entry `CCOc1ccc(NC(=S)NC(=O)/C=C/c2ccccc2)cc1` has what T/C?
95 % of control

Entry `O=C(O)/C=C/C(=O)Nc1ccc(C(=O)O)cc1` has what T/C?
94 % of control

Entry `CO[C@H]1C[C@@H]2CC[C@@H](C)[C@@](O)(O2)C(=O)C(=O)N2CCCC[C@H]2C(=O)O[C@H]([C@H](C)C[C@@H]2CC[C@@H](O)[C@H](OC)C2)CC(=O)[C@H](C)C=C(C)[C@@H](O)[C@@H](OC)C(=O)[C@H](C)C[C@H](C)/C=C/C=C/C=C1C` has what T/C?
113 % of control

Entry `NC(=S)c1csc(CCNC(=O)c2ccccc2)n1` has what T/C?
100 % of control

Entry `O=C(Cc1ccccn1)Cc1ccccn1` has what T/C?
106 % of control

Entry `CCCP(=O)(CCC)CCC` has what T/C?
94 % of control

Entry `CCN(CC)Cc1cc(Nc2c3ccc(Cl)cc3nc3ccc(OC)nc23)ccc1O` has what T/C?
90 % of control

Entry `OCCOc1ccc2ccccc2c1` has what T/C?
100 % of control

* * *

Test system: CD2F1 mice, L1210 leukemia ip, survival T/C
Assay: NCI In Vivo Anticancer Drug Screen. Data for tumor model L1210 Leukemia (intraperitoneal) in CD2F1 (CDF1) mice
Conditions: endpoint: mean survival time; dose: 5.0 mg/kg/injection; schedule: Q01DX009 (ip); vehicle: saline with Tween-80; higher = longer survival
Toxic doses and inconclusive results are not listed.
I'd be grateful if you could share measured T/C for these entries.

Entry O=C1C=C(C2OC(CO)C(O)C2O)C(=O)N1 (stereo not given) has what T/C?
106 % of control

Entry `C=CCc1cccc(OC)c1OCCN(CC)CC` has what T/C?
102 % of control

Entry `CS(=O)(=O)c1nc(Cl)c(Cl)c(C#N)c1Cl` has what T/C?
100 % of control

Entry `[Cl][Pt+2][Cl].[NH-]c1cc(Cl)c(Cl)c(Cl)c1[NH-]` has what T/C?
100 % of control

Entry CC(C)NC(=O)C1CC2c3cccc4[nH]c(Br)c(c34)CC2N(C)C1 (stereo not given) has what T/C?
90 % of control

* * *

System: CD2F1 mice, L1210 leukemia ip, survival T/C
Test: NCI In Vivo Anticancer Drug Screen. Data for tumor model L1210 Leukemia (intraperitoneal) in CD2F1 (CDF1) mice
Details: endpoint: mean survival time; dose: 400.0 mg/kg/injection; schedule: Q04DX003 (ip); vehicle: other; higher = longer survival
Method: The antitumor activity of compounds was measured in mice bearing transplantable tumors. Survival or tumor size were measured and the results are expressed as the measurement made in the treated group (T) divided by the measurement made in the vehicle treated control group (C). The tumor model used in this assay is L1210 Leukemia (intraperitoneal) in CD2F1 (CDF1) mice
Toxic doses and inconclusive results are not listed.
Recorded Metric: T/C

Entry `Cc1ccc(N)nc1[N+](=O)[O-]` has what T/C?
96 % of control

Entry CCOC(=O)C(N)Cc1ccc(O)cc1 (configuration not stated) has what T/C?
97 % of control

Entry `COc1ccc2c(OC)cccc2c1` has what T/C?
101 % of control

Entry CC(=O)OC1CCC2(C)C(=CCC3C2CCC2(C)C3CC3OC4(CCC(C)CO4)C(C)C32)C1 (configuration not stated) has what T/C?
94 % of control

Entry CC(C)(C)OC(=O)NC(C(=O)O)C1=CCC=CC1 (configuration not stated) has what T/C?
97 % of control

Entry `CSc1cc(C)c(O)c(CO)c1` has what T/C?
100 % of control

Entry `Nc1ncc2ccccc2c1-c1ccc(NC(=O)CN(CCCl)CCCl)cc1` has what T/C?
112 % of control
